experiment: NCI Yeast Anticancer Drug Screen. Data for the sgs1 mgt1 strain (AID 161);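 note: 0% = growth of cultures given vehicle only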; settings: S. cerevisiae sgs1 mgt1 strain, at 50.0 µM (retest, dose inferred, filed as 5.0)
The panel holds about 79,000 compounds, 15% with a hit somewhere; the sample as a whole holds those more often. Calls of active or inactive are those of the source. Cut-off read from the data, not from the text of the source: active = growth inhibition above about 70%; inactive = the rest.
The reply should name one outcome from active, inactive

Status in this test for `COc1cc(N)ccc1Nc1c2ccccc2nc2ccccc12` ?
active

What is the recorded call for this molecule in the test? CN(Cc1cnc2nc(N)nc(N)c2n1)c1ccc(C(=O)NC(CCC(=O)O)C(=O)O)c2ccccc12 (stereo not given)
active

What is the recorded call for this molecule in the test? `O=C(CCc1ccccc1)ON1C(=S)C(c2ccccc2)(c2ccccc2)N=C1Sc1ccccc1`
inactive

Continuing:
# fetch the recorded call for `COc1ccc2c(c1)[nH]c1c(/C=C/c3ccccc3)nccc12` here
active

Tell me the assay call for `COC(=O)c1n[nH]c(C)c1N=NN(C)CCC#N` please.
active

---

experiment: NCI Yeast Anticancer Drug Screen. Data for the cln2 rad14 strain (AID 165);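 note: 0% = growth equal to vehicle treated cultures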; details: S. cerevisiae cln2 rad14 strain, at 50.0 µM (retest, dose inferred, filed as 5.0), hits give high values
This is part of a sample that, as a whole, favours compounds with a hit. Of some 79,000 tested, about 15% had one in any assay.
Output 1 for growth inhibition not less than 30%; output 0 otherwise.

Below are worked cases with known answers.
Identify whether the reported growth inhibition of the following compound is 30% or greater: `CN(C)CCNc1cccc2sc3ccc(O)cc3c(=O)c12`
0

Is it the case that `Cc1ccc(N=Nc2ccc(O)c(C)c2)cc1` has growth inhibition reaching or exceeding 30%?
1

Determine whether this compound has growth inhibition no lower than 30%: `Cc1ccc(Nc2c3c(c(C#N)c4nc5ccccc5n24)CCCC3)cc1`
0

Reported growth inhibition reaches at least 30% for `COc1ccc(N=Nc2ccc3oc(=O)c(C(=O)Nc4ccccc4)cc3c2)cc1` ?
1

Does `CCOC(=O)[C@]1(Br)CC[C@@]1(Br)C(=O)OCC` have a reported growth inhibition of at least 30%?
0

Others:
Does the compound Cc1cc(C)c(N2C(=O)CC(Sc3ccccc3N)C2=O)c(C)c1 (stereo unspecified) have recorded growth inhibition that is 30% or more?
1

Decide: is the reported value of growth inhibition for `C=C(CCCO)[C@@H]1CC[C@@](C)(O)[C@H]1C` equal to or greater than 30%?
0

Could you verify whether the entry `COc1ccc(/C=C2\SC(=S)N(C=C3C(=O)NC(=S)NC3=O)C2=O)cc1OC` shows growth inhibition of no less than 30%?
1

Item `Nc1cc(S(N)(=O)=O)ccc1SSc1ccc(S(N)(=O)=O)cc1N` with growth inhibition of 30% or above?
0

Is it the case that `Cc1ccc2c(ccc(/C=C/c3ccc(O)c4ncccc34)[n+]2C)c1` has growth inhibition reaching or exceeding 30%?
1

Threshold query (growth inhibition >= 30%) on `O=[N+]([O-])c1cccc2nc3ccccc3c(NCCc3cccc[n+]3[O-])c12`
1

---

The following compounds are shown together with reported growth inhibition values.
assay: NCI Yeast Anticancer Drug Screen. Data for the cln2 rad14 strain (AID 165);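 note: 0% = growth equal to vehicle treated cultures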; conditions: S. cerevisiae cln2 rad14 strain, at 50.0 µM, hits give high values
This is part of a sample that, as a whole, favours compounds with a hit. Of some 79,000 tested, about 15% had one in any assay. Calls of active or inactive are those of the source. No stated cut-off is given here; in the data, active means growth inhibition above about 70%; inactive means the rest.

Given `COc1cc(CNc2ccc(C(C)C)cc2)cc(OC)c1OC` , state its recorded growth inhibition.
6.85% (inactive)

Continuing:
Record request: growth inhibition value, item Nc1nc2c(c(=O)[nH]1)NC(CCNc1ccc(C(=O)O)cc1)CN2 (stereo unspecified)
2.45% (inactive)

May I ask what growth inhibition has been recorded for `Nc1ccc2c(c1)sc1ccccc12` ?
-13.4% (inactive)

Suppose we examine the compound COc1ccc(N2C(=O)CC(Cl)C2=O)cc1 (stereo unspecified) ; what growth inhibition value has been reported?
97% (active)

Looking for the measured growth inhibition of `CCCCC1=NNC(=O)C1` , can you help?
52% (inactive)

// returns reported growth inhibition for input `O=c1[nH]cc(/C=N\Nc2ccccc2)c(=O)[nH]1`
73.8% (active)

Form field: reported growth inhibition of `CCCCCCSc1nc(COC(=O)NC)c(COC(=O)NC)n1C`
72.8% (active)

Any idea what its growth inhibition is? The compound is CC(=O)Oc1ccc(N2C(=O)C3c4[nH]c5ccccc5c4C4CCC(C(C)(C)C)CC4C3C2=O)cc1 (stereo unspecified)
98.6% (active)

Any idea what growth inhibition was measured for `CN(C)Cc1cccc(CN(C)C)[c]1[Sn]([Br])([c]1ccccc1)[c]1ccccc1` ?
86.9% (active)

Looking for the measured growth inhibition of COc1cccc(C(c2cc3c(cc2O)OCO3)N2CCOCC2)c1OC (stereo unspecified) , can you help?
-30.1% (inactive)

What value of growth inhibition has been reported for the following compound? `Cc1ccc(S(=O)(=O)N/N=C/C2(c3ccccc3)c3ccccc3-c3ccccc32)cc1`
16.1% (inactive)
